TESTED_TARGET: T1, Soluble CTLA-4-Ig (human, UniProt P16410 36-161, FITC-conjugated in the two-colour FACS assays; unlabelled and detected with FITC goat anti-human IgG in the concentration-dependent assay)
T1 construct: extracellular domain; Bought from R&D Systems; also called sCTLA-4-Ig; CTLA-4-Ig Fc; not shown: Fc portion of human IgG1
T1 sequence (P16410 36-161): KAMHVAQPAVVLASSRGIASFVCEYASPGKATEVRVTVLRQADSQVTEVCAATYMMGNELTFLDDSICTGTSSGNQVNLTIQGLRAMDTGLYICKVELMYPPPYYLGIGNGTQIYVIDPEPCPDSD
EXPERIMENT_NOTES: two-colour FACS profile on transfected cells; score of preference for CTLA-4-Ig over CD28-Ig vs WT hB7-1
PROPERTY_NAME: Binding Score
Field format: numeric only.

>  <BINDER>
Round 2 CTLA4BP-5x9-12c (ligand) VIHVTKEVKEVATLSCGHNVSVEELAQTRIHWQKEKKMVLTMMSGDMNIWPEYKNRTIFDITNNLSIVILALRPSDEGTYECVVLKYEKDAFKREHLAEVMLSVKADFPTPSITDFEIPPSNIRRIICSTSGGFPEPHLSWLENGEELNAINTTASQDPETELYTVSSKLDFNMTTNHSFMCLIKYGHLRVNQTFNWNTPKQEHFPDNLLPSWAITLISVNGIFVICCLTYCFAPRCRERKSNERLRRESVRPV

>  <Binding Score>
2

$$$$

Item: Round 2 CTLA4BP-5x2-3c (ligand) VIHVTREVKEVATLSCGHNVSVEELAQTRIHWQKEKKMVLTMMSGDMNIWPEYKNRTIFDITNNLSIVILALRPSDEGTYECVVLKYEKDAFKREHLAEVMLSVKADFPTPSISDFEIPTSNIRRIICSTSGGFPEPHLSWLENGEELNAINTTVSQDPETGLYTVSSKLDFNMTTNHSFMCLIKYGHLRVNQTFNWNTPKQEHFPDNLLPSWAITLISVNGIFVICCLTYCFAPRCRERRRNERLRRESVCPV | Binding Score: 2

Form field Binding Score, entry Round 2 CTLA4 A-H3-6 (ligand) GISQVTKSVKEMAALSCDYNISIDELARMRIYWQKDQQMVLSIISGQVEVWPEYKNRTFPDIINNLSLMILALRLSDKGTYTCVVQKNENGSFRREHLTSVTLSIRADFPVPSINDLGNPSPNIRRLICSTSGGFPRPHLYWLENGEELNATNTTLSQDPETKLYMISSELDFNMTSNHSFLCLVKYGDLTVSQTFYWQESKPTPSANQHLTWTIIIPVSAFGISVIIAVILTCLTCRNAAIRRQRRENEVEMQSCSQSP : 1

binder Round 2 CTLA4BP 5x2-d7 (ligand) VIHMTKEVKEVATLSCGLNVSVEELAQTRIHWQKEKKMVLTMMSGDMNIWPEYKNRTIFDITNNLSIVILALRPSDEGTYECVVLKYEKDAFKREHLAEVMLSVKADFPTPSISDFEIPPSNIRRIICSTSGGFPEPHLSWLENGEELNAINTTVSQDPETGLYTVSSKLDFNMTTNHSFMCLIKYGHLRVNQTFNWNTPKQEHFPDNLLPSWAITLISVNGIFVICCLTYCFAPRCRERRRNERLRRESVRPV , Binding Score observed: 1

Briefly, Binding Score measured for Round 2 CTLA4BP 2x2-f3 (ligand) VIYVTKEVKEVATLSCGHNVSVEELAQTRIYWQKEKKMVLIMMSGDMNIWPEYKNRTIFDITNNLSIVILALRPSDEGTECVVLKYEKDAFKREHLAEVTLSVKADFPTPSISDFEIPPSNIRRIICSTSGGFPEPHLSWLENGEELNAINTTVSQDPGTELYTVSSKLDFNMTTNHSFMCLIKYGHLRVNQTFNWNTPKQEHFPDNLLPSWAITLISVNGIFVICCLTYCFAPRCRERRRNERLRRESVCPV : 1
